For each of the compounds below, state its Papp.
- Test name: in vitro;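 note: filter plate membrane of 1% soybean lecithin in dodecane, donor and acceptor in 5% DMSO/PBS, incubated at 25 °C, peptide in both compartments measured by LC-MS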
- Type: in vitro ADME
- Reported conditions: PAMPA
Non-standard residues stand in square brackets, D forms with d. Residues, ends and D or L forms follow the SMILES beside them. NMeY = CN[C@@H](Cc1ccc(O)cc1)C(=O)O; NMeF = CN[C@@H](Cc1ccccc1)C(=O)O; PhLac = O=C(O)[C@@H](O)Cc1ccccc1
The response must be a number in nm/s with no trailing unit.

Which Papp reading was recorded for the compound CC(C)C[C@@H]1NC(=O)[C@@H](CC(C)C)NC(=O)[C@H](CCCCN)NC(=O)[C@H](Cc2ccccc2)OC(=O)[C@H]2CCCN2C(=O)[C@H](CC(C)C)NC1=O [CP1-Y1F-L2K O] (cyclo(K[dL]LL[dP][PhLac])) ?
0.049

Moving on to CC(C)C[C@@H]1NC(=O)[C@@H](CC(C)C)NC(=O)[C@H](CO)NC(=O)[C@H](Cc2ccccc2)N(C)C(=O)[C@H]2CCCN2C(=O)[C@H](CC(C)C)NC1=O [CP1-Y1F-L2S NMe] (cyclo(LL[dP][NMeF]S[dL]))
5

Moving on to CC(C)C[C@@H]1NC(=O)[C@@H](CC(C)C)NC(=O)[C@H](CC(C)C)NC(=O)[C@H](Cc2ccc(O)cc2)N(C)C(=O)[C@H]2CCCN2C(=O)[C@H](CC(C)C)NC1=O [MP1] (cyclo(LL[dP][NMeY]L[dL]))
17
